# Tested on: SK-MEL-28
# Protocol Summary: NCI tumour cell line growth inhibition, 48 h
Activity calls are given as the source filed them. Cut-off read from the data, not from the text of the source: active = GI50 up to about 1.1 µM and inactive = higher.
Property Measured: GI50

# Compound, GI50
rows = [
    ("CCOC(=O)Cc1c(C)c2ccc(OC(C)=O)c(OC(C)=O)c2oc1=O", "21.3 µM (inactive)"),
    ("Nc1c(OCC(=O)O)ccc2cc(S(=O)(=O)O)ccc12", "> 100 µM (inactive)"),
    ("CC1(O)CC2C(CC1SCCO)C2(C)C (stereo unspecified)", "> 100 µM (inactive)"),
    ("Cn1c2ccccc2c2ccc3c(c21)C(=O)C(c1ccccc1)=CC3=O", "24 µM (inactive)"),
    ("COC(=O)[C@]12C3=C(O)C(=O)C[C@H]1OC[C@H]2C=CC3", "> 100 µM (inactive)"),
]

// query Checklist item: GI50 tested on SK-MEL-28, entry `O=C(NCc1ccc(Cl)c(Cl)c1)c1nc2ccccc2nc1NCc1ccc(Cl)c(Cl)c1` , value?
// result > 100 µM (inactive)

// query So what GI50 did `CC(=O)Oc1ccc(Nn2c3ccccc3c3ccccc32)c(C)c1` get with SK-MEL-28?
// result 67.6 µM (inactive)

// query Give SK-MEL-28 GI50 for CC1(Cl)CC(C)(/C=C/Cl)C(Cl)CC1Cl (stereo unspecified)
// result 15 µM (inactive)

// query Request - read-out GI50 | tested on SK-MEL-28 | compound `CCOC(=O)C(=[N+]=[N-])C(=O)C[N+]12CCN(CC1)CC2`
// result > 100 µM (inactive)

// query Which measured GI50 belongs to `c1ccc(-c2c(-c3[nH]c4ccccc4c3-c3ccccc3)[nH]c3ccccc23)cc1` , tested on SK-MEL-28?
// result 11.4 µM (inactive)

// query What is its GI50 for SK-MEL-28? Entry: `CCOC(=O)c1sc2c(c1OC(=O)c1ccc(OC)cc1)c(=O)n(-c1ccccc1)c(=S)n2-c1ccccc1`
// result > 100 µM (inactive)

---

# Test system: CAKI-1
# Protocol Summary: NCI tumour cell line growth inhibition, 48 h
The source made the active and inactive calls. Rule as the data show it: active = GI50 up to about 1.1 µM and inactive = higher.
Overview of reported GI50 across a group of molecules:

Some solved cases for reference:
# Molecule, Target Or System, Property Measured, Reported Value
measured = [
    ("COC1=CC(=O)O/C1=C(\\OC)C1OC1c1ccccc1 (stereo unspecified)", "CAKI-1", "GI50", "> 100 µM (inactive)"),
    ("CC1CCCC(C(O)CC2CC(=O)N(c3ccccc3)C(=O)C2)C1=O (stereo unspecified)", "CAKI-1", "GI50", "> 100 µM (inactive)"),
    ("O=C(O)CCCCCCC[C@H]1S[C@H]1CCCCCCO", "CAKI-1", "GI50", "> 100 µM (inactive)"),
    ("O=C1c2ccccc2C(=O)c2c1sc1nc3ccccc3n21", "CAKI-1", "GI50", "1.99 µM (inactive)"),
    ("COc1ccc(-n2c(-c3ccccc3)cc(-c3cccs3)c2-c2cccs2)cc1", "CAKI-1", "GI50", "> 100 µM (inactive)"),
    ("N#C/C(=C\\c1cc(Br)c(O)c(Br)c1)c1ccccn1", "CAKI-1", "GI50", "> 100 µM (inactive)"),
]

// query State its GI50 on CAKI-1: `Cc1c(C(=O)/C=C/c2ccccc2)[n+]([O-])c2ccccc2[n+]1[O-]`
// result 17.5 µM (inactive)

// query Fill in the recorded GI50 for this molecule, with CAKI-1 as test system: COc1c(O)c2c3c(c(C)cc(O)c3c1O)C(=O)C(O)(C(C)(C)C(C)=O)C2=O (stereo unspecified)
// result > 100 µM (inactive)

// query Notebook entry, CAKI-1 assay: GI50 of `CNC(=O)OCc1nc(SC(C)C)n(C)c1COC(=O)NC` = ?
// result > 72.3 µM (inactive)

// query API: value(readout= GI50, system= CAKI-1, query= COC1O[C@H]2CCN(C(=O)OCc3ccccc3)[C@H]2[C@H]1OCc1ccccc1 (stereo partly specified) )
// result 40.3 µM (inactive)

// query // lookup GI50 | system=CAKI-1 | key= O=C(Nc1ccn(C2CC(O)C(COC(c3ccccc3)(c3ccccc3)c3ccccc3)O2)c(=O)n1)c1ccccc1 (stereo unspecified)
// result 6.32 µM (inactive)

---

# System: MOLT-4
# Protocol Summary: NCI tumour cell line growth inhibition, 48 h
Active and inactive are the calls of the source. No stated cut-off is given here; in the data, active = GI50 up to about 1.1 µM and inactive = higher.
GI50 listing for selected molecules.

# Molecule, Reported Value
records = [
    ("COc1ccc(C2ON(c3cccc(C)n3)CC=C2C)cc1 (stereo not given)", "36.4 µM (inactive)"),
]

// query What value of measured GI50 is listed for O=c1ccn(C2OC(COC3CCCCO3)C(OC3CCCCO3)C2OC2CCCCO2)c(=O)n1-c1ccccc1 (stereo not given) ?
// result > 100 µM (inactive)

// query Item under review: CCOc1cc(C=O)ccc1O [ETHYL VANILLIN] . Reported GI50?
// result > 100 µM (inactive)

// query # query: GI50 of entry `CC1(O)C=CC(=O)C=C1`
// result 19.2 µM (inactive)

// query Quick check: GI50 of `c1ccc2c(c1)nc1n2CSC1` ?
// result > 100 µM (inactive)

// query What does the record list as GI50 for Nc1ncnc2nn(C3OC(CO)C(O)C3O)nc12 (stereo not given) ?
// result 15.1 µM (inactive)

// query State the recorded GI50 for this entry: `C[C@H]1[C@H]2[C@H]3CC[C@@H]4[C@@]5(C)CC[C@H](O)C(C)(C)[C@@H]5CC[C@@]4(C)[C@]3(C)C[C@H](O)[C@@]2(C)C[C@H]2O[C@]21C`
// result 27.5 µM (inactive)

---

Collected GI50 values appear next to each entry.
# Test system: CAKI-1
# Protocol Summary: NCI tumour cell line growth inhibition, 48 h
Activity calls are given as the source filed them. Rule as the data show it: active = GI50 up to about 1.1 µM and inactive = higher.

# Molecule, GI50
data = [
    ("O=C(O)c1ccccc1CC1Cc2ccc3c(c2C1=O)CCC3 (stereo not drawn)", "> 100 µM (inactive)"),
    ("COc1cc(I)c2c3c1OC1C34CCN(C)C(C2)C4=CC(I)C1(OC)OC (stereo not drawn)", "22.4 µM (inactive)"),
    ("Cc1c(C(=O)/C=C/c2ccccc2Cl)[n+]([O-])c2ccccc2[n+]1[O-]", "3.24 µM (inactive)"),
    ("O=C(c1ccccc1)C1N=NN(Cc2ccccc2[N+](=O)[O-])C1C(=O)c1ccccc1 (stereo not drawn)", "> 100 µM (inactive)"),
    ("COc1ccc(CC2C(=O)NC(C)C(=O)N(C)C3C(=O)N(C)C(Cc4ccc(O)c(c4)Oc4ccc(cc4)C3O)C(=O)NC(C)C(=O)NC(C)C(=O)N2C)cc1.COc1ccc(CC2C(=O)NC(C)C(=O)N(C)C3Cc4ccc(cc4)Oc4cc(ccc4O)CC(C(=O)NC(C)C(=O)NC(C)C(=O)N2C)N(C)C3=O)cc1 (stereo not drawn)", "0.137 µM (active)"),
    ("CC1(C)CCC2=C(O1)/C(=N\\Nc1ccccc1)c1ccccc1C2=O", "24 µM (inactive)"),
]

// query State the recorded GI50 for this entry: `CCN(CC)CCO/N=C1\CC[C@H]2[C@@H]3CCc4cc(OC)ccc4[C@H]3CC[C@]12C`
// result 0.74 µM (active)

// query What does the record list as GI50 for `O=[N+]([O-])c1ccc(Cl)cc1N/N=C/c1cccc2cccnc12` ?
// result > 100 µM (inactive)

---

# Test system: SW-620
# Protocol Summary: NCI tumour cell line growth inhibition, 48 h
The source made the active and inactive calls. No stated cut-off is given here; in the data, active = GI50 up to about 1.1 µM and inactive = higher.
Parameter GI50: see the listing below.

// below: answered molecules
# Molecule, GI50
rows = [
    ("COc1cc(/C=C2\\C(=O)N(c3ccc(Cl)cc3)C(c3ccccc3)S2(=O)=O)cc(OC)c1OC (centres undefined)", "32.2 µM (inactive)"),
    ("C/C(=N/NC(=O)c1ccccc1S(N)(=O)=O)C(CN1CCCCC1)C(C1=C(O)C2C=CC=CC2OC1=O)c1ccccc1 (centres undefined)", "31.8 µM (inactive)"),
    ("C/C(=C\\Cc1ccc(F)cc1)CCCCCC/C(C)=C/Cc1ccc(F)cc1", "17.9 µM (inactive)"),
]

// query Request - read-out GI50 | tested on SW-620 | molecule Cc1ccc(C)n1-c1ccccc1C1C=Cn2c3c1c(=O)c(OC(C)C)c(OC(C)C)c-3n[nH]c2=O (centres undefined)
// result 18.3 µM (inactive)

---

# Test system: LOX IMVI
# Protocol Summary: NCI tumour cell line growth inhibition, 48 h
Active and inactive are the calls of the source. Rule as the data show it: active = GI50 up to about 1.1 µM and inactive = higher.
Some compounds, each annotated with its measured GI50.

// query Which measured GI50 belongs to `CN(N)c1cc(=O)[nH]c(=O)[nH]1` , tested on LOX IMVI?
// result > 100 µM (inactive)

// query # value lookup — system LOX IMVI, readout GI50, item `O=C1CCCCC/C=C2/CC[C@H](Sc3ccccc3)[C@@H]12`
// result 43 µM (inactive)

// query Query the reported GI50 for LOX IMVI; item: `CCN(CC)c1ccc2cc(-c3nnc(-c4ccccc4)o3)c(=O)oc2c1`
// result 29.6 µM (inactive)

// query I'm curious: which GI50 was measured for COC1=CC(=O)O/C1=C(\OC)C1OC1c1ccccc1 (stereo unspecified) tested on LOX IMVI?
// result > 100 µM (inactive)

// query Form field: GI50 recorded for `O=C1/C(=C/c2ccc(Cl)c(Cl)c2)CNC/C1=C\c1ccc(Cl)c(Cl)c1` with LOX IMVI (enter value)
// result 5.07 µM (inactive)

// query Request: GI50, test system LOX IMVI, entry `Cc1ccc(/C=C2\Cc3c(C)cc(C)cc3C2=O)c(C(=O)O)c1`
// result 22.6 µM (inactive)

// query Recorded GI50 for `c1ccc2c(c1)nc1n2CSC1` with LOX IMVI, please?
// result > 100 µM (inactive)

// query What is its GI50 for LOX IMVI? Entry: `C/C(=N\NC(=O)c1ccncc1)c1sc(-n2nc(-c3ccccc3)cc2-c2ccccc2)nc1C`
// result > 80.9 µM (inactive)

// query Form field - read-out: GI50; system: LOX IMVI; submitted item: `O=C(NNC(=O)c1ccccc1O)c1ccc(O)cc1`
// result 31.6 µM (inactive)

// query Form: Entry = N/N=C1/C(=O)N(c2ccc(Cl)cc2)C(=O)C(=O)C1c1nc2ccccc2s1 (stereo unspecified) | System = LOX IMVI | GI50 = ____
// result > 100 µM (inactive)

// query What GI50 appears in the records for this compound with LOX IMVI? `O=[N+]([O-])c1ccc(NS(=O)(=O)C(F)(F)F)cc1`
// result > 100 µM (inactive)

Where these numbers come from: ChEMBL document CHEMBL1201862
